Value source: patent US20160137639A1

- TARGET: human RORγ (Homo sapiens, UniProt P51449)
- Construct: human, NM_005060.3 and from Ser253 to Lys518; expressed in transfected cells; host or cells: CHO cells (transient co-transfection with pG5-Luc reporter)
- Sequence (P51449 253-518): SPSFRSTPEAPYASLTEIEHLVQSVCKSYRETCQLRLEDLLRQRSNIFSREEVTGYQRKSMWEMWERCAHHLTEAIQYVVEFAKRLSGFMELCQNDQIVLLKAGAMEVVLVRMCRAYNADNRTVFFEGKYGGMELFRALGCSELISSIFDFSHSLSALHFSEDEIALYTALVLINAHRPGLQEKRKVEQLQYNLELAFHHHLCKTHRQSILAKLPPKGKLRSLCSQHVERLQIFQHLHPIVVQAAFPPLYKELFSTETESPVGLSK
- PROTOCOL_NOTES: Luciferase reporter gene assay of inhibitory effect against RORγ transcriptional activity (GAL4-hRORγ plasmid in CHO cells)
- Assay type: cell-based
- CONDITION_LABEL: read-out: LUC EC50 (μM) hRORg
OBSERVATION_TYPE: EC50

compound="CCOC(=O)[C@H]1CC[C@H](CCc2nnc(CCC(=O)Nc3cccc(Cl)c3C)n2C2CC2)CC1 [Example F-240]" observation_type=EC50 assay_result="> 3 µM"
compound="CC(C)C(F)(F)c1cc(-c2onc([C@@H](CCC(=O)O)CC(=O)Nc3ccc(Cl)cc3F)c2C2CC2)no1 [Example E-55]" observation_type=EC50 assay_result="< 3 µM"
compound="C=CCOc1ccc(-c2nnc(CCC(=O)Nc3ccc(C)cc3C)n2C2CC2)cc1 [Example F-460]" observation_type=EC50 assay_result="> 3 µM"
compound="CCc1ccc(CNC(=O)CCc2nnc(CCC(C)C)n2C2CC2)cc1 [Example F-124]" observation_type=EC50 assay_result="> 3 µM"
compound="C=CC[C@@H](CC(=O)Nc1ccc(C)cc1C)c1nnc(CCCC(C)(C)C)n1C1CC1 [Example F-389]" observation_type=EC50 assay_result="< 3 µM"
compound="Cc1ccc(NC(=O)CCc2nnc(C3CC(COC(C)C)C3)n2C2CC2)c(C)c1 (single isomer, unassigned) [Example F-477]" observation_type=EC50 assay_result="< 3 µM"
compound="Cc1ccc(NC(=O)CC(Cc2nnn[nH]2)c2nnc([C@H]3C[C@@H](CC(C)C)C3)n2C2CC2)c(C)c1 (mixture of isomers) [Example F-481]" observation_type=EC50 assay_result="> 3 µM"
compound="Cc1ccc(CNC(=O)CCc2nnc(CCC(C)C)n2C2CC2)c(O)c1 [Example F-149]" observation_type=EC50 assay_result="> 3 µM"
compound="Cc1ccc(NC(=O)C[C@H](CCC(=O)O)c2noc(-c3cc(CC(C)C)n(C)n3)c2C2CC2)c(Cl)c1 [Example E-26]" observation_type=EC50 assay_result="< 3 µM"
